MEASURE_NAME: melting point

Example entries begin here.
MOLECULE_SMILES: Fc1ccc(-c2[nH]nc(C(F)(F)F)c2-c2ccncc2)cc1
melting point: 281.94 °C
//
MOLECULE_SMILES: COc1ccccc1Nc1nccc(-c2cn[nH]c2-c2ccc(F)cc2)n1
melting point: 265 °C (dec.)
//
MOLECULE_SMILES: Nc1[nH]nc(-c2ccc(Cl)cc2)c1-c1ccncc1
melting point: > 300 °C
//
MOLECULE_SMILES: CN1CCN(c2n[nH]c(-c3cccc(C#N)c3)c2-c2ccncc2)CC1
melting point: 223.4 to 224.3 °C

Turning now to a further record.
Query: melting point; subject: Cc1cc(C(=O)C(=C2SCS2)c2ccncc2)ccc1Br
167.1 to 167.5 °C

* * *

I'd appreciate it if you could supply pIC50 values for the items below.
test system: TNF-α; experiment: LPS stimulation of TNF production by U937 cells; assay type: cell-based, human; settings: Homo sapiens, U-937, TNF production, LPS-stimulated human U937 cells; read-out: U937 Cell IC50
One number for each entry, as −log10 of the molar value.

Example entries begin here.
MOLECULE_SMILES: O=C(NCc1[nH]nc(-c2ccc(F)cc2)c1-c1ccncc1)C1CC1
MEASUREMENT_TARGET: TNF-α
pIC50: 5.48

MOLECULE_SMILES: C[C@@H](NC(=O)c1ccccc1I)c1[nH]nc(-c2ccc(F)cc2)c1-c1ccncc1
MEASUREMENT_TARGET: TNF-α
pIC50: 6.18

MOLECULE_SMILES: CCS(=O)(=O)NCc1[nH]nc(-c2ccc(F)cc2)c1-c1ccncc1
MEASUREMENT_TARGET: TNF-α
pIC50: 5.30

Turning now to a further record.
Query: pIC50; subject: O=[N+]([O-])c1cccc(S(=O)(=O)NCc2[nH]nc(-c3ccc(F)cc3)c2-c2ccncc2)c1
5.41

* * *

target: human p38 kinase alpha (Homo sapiens, UniProt Q16539); construct: The coding region of the human p38a cDNA was obtained by PCR-amplification from RNA isolated from the human monocyte cell line THP.1; GST (N); made in house; host or cells: E. coli DH10B; assay: p38 kinase in vitro assay, phosphorylation of biotinylated PHAS-I with gamma 32P-ATP; type: biochemical; settings: read-out: p38 alpha IC50
Sequence (Q16539 whole entry): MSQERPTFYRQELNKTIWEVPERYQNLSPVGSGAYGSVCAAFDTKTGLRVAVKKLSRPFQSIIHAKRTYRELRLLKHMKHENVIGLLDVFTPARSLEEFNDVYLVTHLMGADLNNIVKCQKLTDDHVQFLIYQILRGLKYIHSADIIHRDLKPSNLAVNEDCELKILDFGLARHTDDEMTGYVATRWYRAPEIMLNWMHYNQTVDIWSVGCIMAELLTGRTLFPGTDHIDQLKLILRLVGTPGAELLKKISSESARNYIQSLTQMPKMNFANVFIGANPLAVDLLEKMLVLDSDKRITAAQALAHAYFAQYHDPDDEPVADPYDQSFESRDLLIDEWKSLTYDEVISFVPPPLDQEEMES
pIC50: −log10 of the molar value. Where a name gives a salt, the structure may show the parent alone.
Respond with class 1 for pIC50 values of 6 and above, class 0 for values below.

Known results for molecules:
MOLECULE: C[C@H](O)C(=O)N1CCC(c2[nH]nc(-c3ccc(Cl)cc3)c2-c2ccncn2)CC1 [Example D-5, hydrochloride]
CAT: class 1

MOLECULE: O=C([C@H](O)c1ccccc1)N1CCC(c2[nH]nc(-c3ccc(Cl)cc3)c2-c2ccncn2)CC1 [Example D-7]
CAT: class 1

MOLECULE: O=C(CO)N1CCC(c2[nH]nc(-c3ccc(C(F)(F)F)cc3)c2-c2ccncn2)CC1 [Example D-9]
CAT: class 0

MOLECULE: O=C(CO)N1CCC(c2[nH]nc(-c3cccc(C(F)(F)F)c3)c2-c2ccncn2)CC1 [Example D-13]
CAT: class 1

Does the reported pIC50 for O=C(CO)N1CCC(c2[nH]nc(-c3cccc(Cl)c3)c2-c2ccncn2)CC1 [Example D-11] fall at or above the 6 mark?
class 1

* * *

biological target: human p38 kinase alpha (Homo sapiens, UniProt Q16539); construct: The coding region of the human p38a cDNA was obtained by PCR-amplification from RNA isolated from the human monocyte cell line THP.1; GST (N); made in house; host or cells: E. coli DH10B; test: p38 kinase in vitro assay, phosphorylation of biotinylated PHAS-I with gamma 32P-ATP; type: biochemical; details: read-out: P38 alpha kinase IC50
Label rule met when IC50 is strictly below 500 nM; otherwise label rule not met.

MOLECULE_SMILES: N#Cc1ccc(S(=O)(=O)NCc2[nH]nc(-c3ccc(F)cc3)c2-c2ccncc2)cc1
CAT: rule met
//
MOLECULE_SMILES: O=C(NCc1[nH]nc(-c2ccc(F)cc2)c1-c1ccncc1)c1ccccc1F
CAT: rule not met
//
MOLECULE_SMILES: C[C@@H](NS(=O)(=O)c1ccc(Cl)s1)c1[nH]nc(-c2ccc(F)cc2)c1-c1ccncc1
CAT: rule met
//
MOLECULE_SMILES: C[C@@H](NC(=O)[C@H]1CCCN1)c1[nH]nc(-c2ccc(F)cc2)c1-c1ccncc1
CAT: rule not met

Identify whether the compound Cc1ccccc1C(=O)N[C@H](C)c1[nH]nc(-c2ccc(F)cc2)c1-c1ccncc1 records IC50 below 500 nM.
rule met

Identify whether the compound N#Cc1cccc(C(=O)N2CCC(c3[nH]nc(-c4ccc(F)cc4)c3-c3ccncc3)CC2)c1 records IC50 below 500 nM.
rule not met

Identify whether the compound Fc1ccc(-c2n[nH]c([C@@H]3CCCN3)c2-c2ccncc2)cc1 records IC50 below 500 nM.
rule not met

Identify whether the compound CC(=O)Nc1ccc(Cc2[nH]nc(-c3ccc(Cl)cc3)c2-c2ccncc2)cc1 records IC50 below 500 nM.
rule met

Identify whether the compound C[C@@H](NC(=O)c1cccnc1)c1[nH]nc(-c2ccc(F)cc2)c1-c1ccncc1 records IC50 below 500 nM.
rule not met

Identify whether the compound CC(=O)OC(C)(C)C(=O)NCc1[nH]nc(-c2ccc(F)cc2)c1-c1ccncc1 records IC50 below 500 nM.
rule met

Identify whether the compound O=S(=O)(NCc1[nH]nc(-c2ccc(F)cc2)c1-c1ccncc1)c1ccc(-c2ccon2)s1 records IC50 below 500 nM.
rule met

Identify whether the compound C[C@@H](NC(=O)c1cc(C(F)(F)F)ccc1F)c1[nH]nc(-c2ccc(F)cc2)c1-c1ccncc1 records IC50 below 500 nM.
rule not met

Identify whether the compound CC(C)OC(=O)N[C@H](C)c1[nH]nc(-c2ccc(F)cc2)c1-c1ccncc1 records IC50 below 500 nM.
rule met

Identify whether the compound C[C@@H](NS(=O)(=O)[C@@]12CC[C@H](CC1=O)C2(C)C)c1[nH]nc(-c2ccc(F)cc2)c1-c1ccncc1 records IC50 below 500 nM.
rule met

* * *

I'd appreciate it if you could supply IC50 values for the items below.
Target: human p38 kinase alpha (Homo sapiens, UniProt Q16539)
Construct: The coding region of the human p38a cDNA was obtained by PCR-amplification from RNA isolated from the human monocyte cell line THP.1; GST (N); made in house; host or cells: E. coli DH10B
Assay: p38 kinase in vitro assay, phosphorylation of biotinylated PHAS-I with gamma 32P-ATP
Type: biochemical
Details: activated human p38 kinase alpha, PHAS-I substrate, 50 μM unlabeled ATP; read-out: p38 kinase IC50
Experimental: The ability of compounds to inhibit human p38 kinase alpha was evaluated using two in vitro assay methods. […] Following incubation, 20 μl of reaction mixture was transferred to a high capacity streptavidin coated filter plate (SAM-streptavidin-matrix, Promega) prewetted with phosphate buffered saline. […] The plates were sealed and counted.

Items follow; give IC50 for each.
1. CCc1[nH]nc(-c2cccc(C)c2)c1-c1ccncc1
2. Cc1cccc(-c2n[nH]cc2-c2ccnc(C)c2)c1
3. Cc1cccc(-c2[nH]nc(C)c2-c2ccncc2)c1

1. < 100 nM
2. < 100 nM
3. < 100 nM

* * *

Target: human p38 kinase alpha (Homo sapiens)
Construct: The coding region of the human p38a cDNA was obtained by PCR-amplification from RNA isolated from the human monocyte cell line THP.1; GST (N); made in house; host or cells: E. coli DH10B
Assay: p38 kinase in vitro assay, phosphorylation of biotinylated PHAS-I with gamma 32P-ATP
Assay type: biochemical
Settings: read-out: P38 alpha kinase IC50
Method: The ability of compounds to inhibit human p38 kinase alpha was evaluated using two in vitro assay methods. […] Following incubation, 20 μl of reaction mixture was transferred to a high capacity streptavidin coated filter plate (SAM-streptavidin-matrix, Promega) prewetted with phosphate buffered saline. […] The plates were sealed and counted.
MEASURE_NAME: log10 IC50 (log10 of the value in µM)
# values: log10(IC50), units µM

Example entries begin here.
MOLECULE: O=C(NCc1[nH]nc(-c2ccc(F)cc2)c1-c1ccncc1)c1ccco1 [Example B-0209]
log10 IC50: -0.54
//
MOLECULE: COc1cccc(C(=O)N[C@H](C)c2[nH]nc(-c3ccc(F)cc3)c2-c2ccncc2)c1 [Example B-0380]
log10 IC50: 0.15

Items follow; give log10 IC50 for each.
1. Clc1ccc(-c2n[nH]c(C3CCNCC3)c2-c2ccncn2)cc1 [Example C-136]
2. CC(NS(=O)(=O)CC12CCC(CC1=O)C2(C)C)c1[nH]nc(-c2ccc(F)cc2)c1-c1ccncc1 (centres unmarked) [Example B-0434]
3. C[C@@H](NC(=O)C(C)(C)C)c1[nH]nc(-c2ccc(F)cc2)c1-c1ccncc1 [Example B-0424]

1: -1.49; 2: -0.92; 3: -1.08
